- system.tested: DRB1*07:01
- assay.conditions: modification not given
measurement.kind: IC50 (nM)

>>> numeric_result("PLVSSQCVNLTTRTQ [… (position 9)]")
838
